Recorded pIC50, one value per entry.
# assayedSystem: AHR (Mus musculus, UniProt P30561)
# Sequence (P30561 whole entry P471L/N533S/M589L, form open): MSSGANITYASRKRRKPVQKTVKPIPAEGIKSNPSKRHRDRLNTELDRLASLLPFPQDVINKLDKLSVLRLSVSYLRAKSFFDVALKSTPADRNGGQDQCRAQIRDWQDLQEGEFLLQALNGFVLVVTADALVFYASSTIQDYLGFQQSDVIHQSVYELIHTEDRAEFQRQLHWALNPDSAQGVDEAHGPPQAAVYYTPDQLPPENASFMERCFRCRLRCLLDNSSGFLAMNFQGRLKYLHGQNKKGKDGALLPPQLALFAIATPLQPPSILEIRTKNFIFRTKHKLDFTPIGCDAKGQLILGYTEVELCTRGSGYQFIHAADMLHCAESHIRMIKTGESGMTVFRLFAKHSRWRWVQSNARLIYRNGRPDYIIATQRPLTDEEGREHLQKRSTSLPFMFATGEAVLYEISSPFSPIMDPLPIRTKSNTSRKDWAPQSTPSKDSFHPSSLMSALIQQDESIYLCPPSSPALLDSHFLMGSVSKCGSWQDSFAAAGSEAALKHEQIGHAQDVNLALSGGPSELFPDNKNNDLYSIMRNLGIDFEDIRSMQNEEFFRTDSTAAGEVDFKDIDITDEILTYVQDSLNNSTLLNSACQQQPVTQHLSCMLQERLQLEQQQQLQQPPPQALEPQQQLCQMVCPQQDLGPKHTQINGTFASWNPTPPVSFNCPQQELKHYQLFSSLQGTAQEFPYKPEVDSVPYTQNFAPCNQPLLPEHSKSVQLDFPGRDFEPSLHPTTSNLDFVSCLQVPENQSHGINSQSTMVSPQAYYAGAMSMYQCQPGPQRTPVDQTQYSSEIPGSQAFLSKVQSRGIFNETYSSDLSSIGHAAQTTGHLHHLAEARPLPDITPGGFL
# methodSummary: In vitro assay 3: antagonism in mouse cell line (AHR transactivation, firefly luciferase reporter, kynurenic acid prestimulated)
# Format: cell-based
# reportedConditions: read-out: AHR Antagonism Mouse IC50, mouse Hepa 1c1c7 cells, 200 μM kynurenic acid, 20 hours
pIC50: −log10 of the molar value.

smi | valueComparator | pIC50
Cn1cc(-c2nc3c4c(Cl)cccc4nc(N[C@@H]4CCCCNC4=O)n3n2)cn1 | = | 6.93
CC[C@@H](Nc1nc2c(Br)cccc2c2nc(-c3ccc(Cl)cc3OC(F)F)nn12)C(N)=O | = | 9.55
Cc1c(-c2nc3c4ccccc4nc(N[C@@H]4CCCCNC4=O)n3n2)cnn1C | = | 8.07
Cc1ccccc1-c1nc2c3ccccc3nc(N[C@H]3CCCCNC3=O)n2n1 | = | 8.77
CC(C)Sc1cccc2c1nc(N[C@@H]1CCCCNC1=O)n1nc(-c3cnn(C)c3)nc21 | = | 5.91
O=C1NCCNC[C@H]1Nc1nc2cccc(C(F)(F)F)c2c2nc(-c3cccc(F)c3)nn12 | = | 6.05
O=C1NCCCC[C@@H]1Nc1nc2ccccc2c2nc(-c3cc(C(F)(F)F)ccn3)nn12 | = | 6.61
O=C1NCCCC[C@H]1Nc1nc2ccccc2c2nc(-c3ccc(F)c(Cl)c3)nn12 | < | 5.70

====

# assayedSystem: AHR (Homo sapiens)
# Construct: U87 MG glioblastoma cells (ATCC #HTB-14) endogenously expressing AHR; endogenous in cells; host or cells: U87 MG glioblastoma cells (ATCC #HTB-14)
# methodSummary: In vitro assay 1: antagonism in human cell line (AHR transactivation, firefly luciferase reporter, kynurenic acid prestimulated)
# Assay type: cell-based
# reportedConditions: AHR Antagonism Human IC50 [M], firefly luciferase reporter
observable: log10 of IC50 (log10 of the value in M)

smi | assayedSystem | log10 of IC50
CC[C@@H](Nc1nc2c(C(F)(F)F)cccc2c2nc(-c3ccnn3C)nn12)C(N)=O | AHR (Homo sapiens) | -8.46
COc1ccc(-c2nc3c4cccc(S(C)(=O)=O)c4nc(N[C@@H]4CNCCNC4=O)n3n2)cc1 | AHR (Homo sapiens) | -7.90
COc1ccc(-c2nc3c4cccc(OC5CC5)c4nc(N[C@@H]4CCCCNC4=O)n3n2)cc1 | AHR (Homo sapiens) | -8.16
C[C@@H](Nc1nc2c(C(F)(F)F)cccc2c2nc(-c3cnn(C)c3)nn12)C(=O)N1CC2(COC2)C1 | AHR (Homo sapiens) | -7.24
COc1ccc(-c2nc3c4cccc(Br)c4nc(N[C@H](C)C(=O)NCCN4CCN(C(=O)OC(C)(C)C)CC4)n3n2)cc1 | AHR (Homo sapiens) | -8.39
COc1ccc(-c2nc3c4ccccc4nc(N[C@H](C)C(=O)NCCN4CCN(C)CC4)n3n2)cc1 | AHR (Homo sapiens) | -8.22
O=C1NCCCC[C@H]1Nc1nc2c(Br)cccc2c2nc(-c3cnn(CC4CCC4)c3)nn12 | AHR (Homo sapiens) | -8.59

====

# assayedSystem: UniProtKB P30561
# methodSummary: In vitro assay 3: antagonism in mouse cell line (AHR transactivation, firefly luciferase reporter, kynurenic acid prestimulated)
# Format: cell-based
# reportedConditions: mouse Hepa 1c1c7 cells, 200 μM kynurenic acid, 20 hours, read-out: AHR Antagonism Mouse IC50

molecule | resultUnit | valueComparator | IC50
O=C1NCC[C@H]1Nc1nc2ccccc2c2nc(-c3ccc(Cl)cc3OC(F)F)nn12 | nM | = | 6.94
O=C1NCCCC[C@H]1Nc1nc2ccccc2c2nc(-c3c[nH]nc3C(F)(F)F)nn12 | nM | = | 347
CCc1noc(-c2nc3c4ccccc4nc(N[C@@H]4CCCCNC4=O)n3n2)n1 | nM | = | 26.3
O=C1NCCC[C@H]1Nc1nc2ccccc2c2nc(-c3ccccc3OC(F)F)nn12 | nM | = | 38.1
CCC[C@@H](Nc1nc2ccccc2c2nc(-c3ccccc3OC(F)F)nn12)C(=O)NC | nM | = | 1.44
COc1cccc2c1nc(N[C@@H]1CCCCNC1=O)n1nc(-c3cnn(C4CC4)c3)nc21 | nM | = | 109
O=C1NCCCC[C@H]1Nc1nc2ccccc2c2nc(-c3cncc(Cl)c3)nn12 | nM | = | 14.8
Cc1sccc1-c1nc2c3ccccc3nc(N[C@@H]3CCCNC3=O)n2n1 | nM | = | 37.4
Cc1cscc1-c1nc2c3ccccc3nc(N[C@@H]3CCNC3=O)n2n1 | nM | = | 631
COc1cccc(-c2nc3c4ccccc4nc(N[C@@H](C)C(N)=O)n3n2)c1 [Example 81] | nM | = | 287
O=C1NCCC[C@H]1Nc1nc2ccccc2c2nc(-c3ccsc3)nn12 | nM | = | 178
COc1ccc(-c2nc3c4ccccc4nc(NC4CNCCNC4=O)n3n2)cc1 (single isomer, unassigned) [Example 35] | nM | = | 60.4
Nc1ccc(-c2nc3c4ccccc4nc(N[C@@H]4CCCCNC4=O)n3n2)cn1 | nM | = | 21.4
NC(=O)[C@@H](CO)Nc1nc2ccccc2c2nc(-c3ccccc3)nn12 | nM | = | 68.6
CC[C@H](Nc1nc2ccccc2c2nc(-c3cnccn3)nn12)C(N)=O | nM | > | 20000
COc1ccc(-c2nc3c4c(C(F)(F)F)cccc4nc(N[C@@H]4CCCCNC4=O)n3n2)cc1 | nM | = | 12
Cn1cc(-c2nc3c4c(C5CC5)cccc4nc(NC4CNCCNC4=O)n3n2)cn1 (centres unmarked) | nM | = | 5430
CN1CC[C@@H](Nc2nc3ccccc3c3nc(-c4ccc(OC(F)(F)F)cc4)nn23)C1=O | nM | = | 19.3
O=C1NCCNCC1Nc1nc2cccc(Cl)c2c2nc(-c3ccc(F)cc3)nn12 (centres unmarked) [Example 293] | nM | = | 56.1
CC(C)n1cc(-c2nc3c4cccc(C#N)c4nc(N[C@@H]4CCCCNC4=O)n3n2)cn1 | nM | = | 10

====

Recorded IC50, one value per entry.
# assayedSystem: AHR (Homo sapiens, UniProt P35869)
# Construct: U87 MG glioblastoma cells (ATCC #HTB-14) endogenously expressing AHR; endogenous in cells; host or cells: U87 MG glioblastoma cells (ATCC #HTB-14)
# Sequence (P35869 11-848): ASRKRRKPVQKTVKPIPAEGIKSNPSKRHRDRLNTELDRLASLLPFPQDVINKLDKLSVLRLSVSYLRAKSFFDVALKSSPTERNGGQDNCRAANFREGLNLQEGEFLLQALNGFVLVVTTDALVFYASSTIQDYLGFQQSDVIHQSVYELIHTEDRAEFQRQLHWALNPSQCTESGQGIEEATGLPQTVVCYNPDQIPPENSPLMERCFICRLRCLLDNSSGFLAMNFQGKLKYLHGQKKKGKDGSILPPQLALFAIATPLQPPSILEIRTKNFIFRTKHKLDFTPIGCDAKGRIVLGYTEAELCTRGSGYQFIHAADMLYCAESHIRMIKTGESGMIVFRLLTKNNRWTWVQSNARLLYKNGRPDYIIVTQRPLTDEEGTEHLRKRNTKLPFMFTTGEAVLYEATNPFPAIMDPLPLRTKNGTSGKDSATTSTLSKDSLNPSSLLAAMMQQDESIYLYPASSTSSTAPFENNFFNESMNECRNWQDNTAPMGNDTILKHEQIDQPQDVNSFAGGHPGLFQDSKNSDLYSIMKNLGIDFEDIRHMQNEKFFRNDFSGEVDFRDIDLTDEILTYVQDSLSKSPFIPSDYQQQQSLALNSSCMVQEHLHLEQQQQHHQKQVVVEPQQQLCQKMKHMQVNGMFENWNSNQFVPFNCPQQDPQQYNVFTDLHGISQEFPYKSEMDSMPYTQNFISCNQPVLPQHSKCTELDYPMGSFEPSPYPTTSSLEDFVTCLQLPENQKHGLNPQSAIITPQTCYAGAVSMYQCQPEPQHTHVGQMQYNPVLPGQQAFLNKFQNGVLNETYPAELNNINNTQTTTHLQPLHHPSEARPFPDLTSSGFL
# methodSummary: In vitro assay 1: antagonism in human cell line (AHR transactivation, firefly luciferase reporter, kynurenic acid prestimulated)
# Type: cell-based
# reportedConditions: AHR Antagonism Human IC50 [M], firefly luciferase reporter

compound | assayedSystem | valueComparator | IC50 / M
COc1ccc(-c2nc3c4ccccc4nc(N[C@H](C)C(=O)NCCN4CCCCC4)n3n2)cc1 | AHR (Homo sapiens, UniProt P35869) | = | 4.02e-08
O=C1NCCNC[C@H]1Nc1nc2c(Br)cccc2c2nc(-c3cnn(C4CC4)c3)nn12 | AHR (Homo sapiens, UniProt P35869) | = | 3.97e-09
Cn1cc(-c2nc3c4cccc(Br)c4nc(N[C@@H]4CSCCNC4=O)n3n2)cn1 | AHR (Homo sapiens, UniProt P35869) | = | 7.6e-10
CCn1cc(-c2nc3c4cccc(Br)c4nc(N[C@@H]4CCCCNC4=O)n3n2)c(C)n1 | AHR (Homo sapiens, UniProt P35869) | = | 3.72e-10
CC(C)n1cc(-c2nc3c4cccc(Br)c4nc(N[C@@H]4CCCCNC4=O)n3n2)cn1 | AHR (Homo sapiens, UniProt P35869) | = | 7.23e-10
CCn1cc(-c2nc3c4cccc(Cl)c4nc(N[C@@H]4CCCCNC4=O)n3n2)cn1 | AHR (Homo sapiens, UniProt P35869) | = | 6.2e-10
Cn1cc(-c2nc3c4cccc(C(C)(C)O)c4nc(N[C@@H]4CCCCNC4=O)n3n2)cn1 | AHR (Homo sapiens, UniProt P35869) | = | 1.34e-07
Cn1cc(-c2nc3c4cccc(S(C)(=O)=O)c4nc(N[C@@H]4CNCCNC4=O)n3n2)cn1 | AHR (Homo sapiens, UniProt P35869) | > | 2e-05
COc1ccc(-c2nc3c4cccc(S(C)(=N)=O)c4nc(N[C@@H]4CCCCNC4=O)n3n2)cc1 (mixture of isomers) [Example 853] | AHR (Homo sapiens, UniProt P35869) | = | 2.04e-09
COc1ccc(-c2nc3c4cccc(S(=O)(=O)C(C)C)c4nc(N[C@@H]4CNCCNC4=O)n3n2)cc1 | AHR (Homo sapiens, UniProt P35869) | = | 3.61e-08
CCn1cc(-c2nc3c4cccc(Br)c4nc(N[C@@H]4CNCCNC4=O)n3n2)c(C)n1 | AHR (Homo sapiens, UniProt P35869) | = | 8.12e-10
CCn1cc(-c2nc3c4cccc(S(C)(=O)=O)c4nc(N[C@@H]4CCCCNC4=O)n3n2)c(C)n1 | AHR (Homo sapiens, UniProt P35869) | = | 3.02e-09
C[C@@H](Nc1nc2c(Br)cccc2c2nc(-c3cnn(C)c3)nn12)C(=O)NCCN1CCNCC1 | AHR (Homo sapiens, UniProt P35869) | = | 5.88e-07
O=C1NCCCC[C@H]1Nc1nc2c(Br)cccc2c2nc(-c3cnn(C4CCC4)c3)nn12 | AHR (Homo sapiens, UniProt P35869) | = | 9.98e-10
CCn1cc(-c2nc3c4cccc(Cl)c4nc(N[C@@H]4CCCCNC4=O)n3n2)c(C)n1 | AHR (Homo sapiens, UniProt P35869) | = | 2.31e-10
COc1ccc(-c2nc3c4ccccc4nc(N[C@H](C)C(=O)NCCN(C)C(=O)OC(C)(C)C)n3n2)cc1 | AHR (Homo sapiens, UniProt P35869) | = | 3.9e-09
CC(C)n1cc(-c2nc3c4cccc(S(C)(=O)=O)c4nc(N[C@@H]4CNCCNC4=O)n3n2)cn1 | AHR (Homo sapiens, UniProt P35869) | = | 1.67e-06
O=C1NCCNC[C@H]1Nc1nc2c(Br)cccc2c2nc(-c3cnn(CC4CCC4)c3)nn12 | AHR (Homo sapiens, UniProt P35869) | = | 9.42e-09

Just for reference, patent US20230113037A1 is where these values come from.
